Hey, just so you know, these numbers are from the RNAGym collection of RNA variant scans (doi:10.7554/elife.90254).

B1: LINE1-mini (parent)
chain: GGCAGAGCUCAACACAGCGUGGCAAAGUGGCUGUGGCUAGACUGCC

Variants of: B1
Assay: self-cleavage, relative activity (ratio to wild type); higher = more cleavage; in vitro, sequencing; the parent is a self-cleaving ribozyme
This listing pairs variants with measured self-cleavage.
Give the figure only, with no unit attached.

See these solved cases before continuing.
C18G A24U :: 0.76
U34G G44U :: 0.07
C10U C18G :: 0.22
G1C G33C :: 0.14
U9G C15A :: 0.1
G7A C45A :: 0.19
G33U A41C :: 0.06
U9C A12C :: 0.04

Req: For the variant G17U A24C , give its measured self-cleavage value.
Resp: 0.11

Req: For the variant C23U G44C , give its measured self-cleavage value.
Resp: 0.48

Req: For the variant A16U C42A , give its measured self-cleavage value.
Resp: 0.05
